Attribute: Emax
- subject of test: human Farnesoid X receptor ligand-binding domain/Gal4 DNA binding domain chimera (Homo sapiens, UniProt Q96RI1)
- Construct: host or cells: FXR-UAS-bla HEK 293T (CellSensor UAS-bla HEK 293T)
- test method notes: Cell-based assay of FXR activation (FXR-UAS-bla HEK 293T beta-lactamase reporter)
- test settings: HEK-293T, read-out: Cellular % Efficacy
Provide only the numeric value, understood in %.

{"compound": "O=C(O)c1cc(F)c2nc(N3C[C@@H]4C[C@H]3C[C@H]4OCc3c(C4CC4)cnn3-c3c(Cl)cccc3Cl)sc2c1", "unit descriptor": "%", "Emax": 106}
{"compound": "O=C(O)c1ccc(N2C[C@@H]3C[C@H]2C[C@H]3OCc2c(C3CC3)cnn2-c2c(Cl)cccc2Cl)cc1F", "unit descriptor": "%", "Emax": 104}
{"compound": "O=C(O)c1cc(C2CCOCC2)c2nc(N3C[C@@H]4C[C@H]3C[C@H]4OCc3c(-c4c(Cl)cccc4Cl)nnn3C3CC3)sc2c1", "unit descriptor": "%", "Emax": 111}
{"compound": "O=C(O)c1cc([C@H]2CCOC2)c2nc(N3C[C@@H]4C[C@H]3C[C@H]4OCc3c(-c4c(Cl)cccc4Cl)cnn3C3CC3)sc2c1 (single isomer, unassigned)", "unit descriptor": "%", "Emax": 100}
{"compound": "O=C(O)c1cc([C@H]2CCOC2)c2nc(N3C[C@@H]4C[C@H]3C[C@H]4OCc3c(C4CC4)nnn3-c3c(Cl)cccc3Cl)sc2c1 (single isomer, unassigned)", "unit descriptor": "%", "Emax": 102}

Shifting focus to the compound that follows.
Query "O=C(O)c1cc(C2CCOCC2)c2nc(N3C[C@@H]4C[C@H]3C[C@H]4OCc3c(-c4c(Cl)cccc4Cl)cnn3C3CC3)sc2c1" yields Emax of 105

====

- subject of test: human Farnesoid X receptor ligand-binding domain/Gal4 DNA binding domain chimera (Homo sapiens, UniProt Q96RI1)
- Sequence (Q96RI1 262-486 limits assumed): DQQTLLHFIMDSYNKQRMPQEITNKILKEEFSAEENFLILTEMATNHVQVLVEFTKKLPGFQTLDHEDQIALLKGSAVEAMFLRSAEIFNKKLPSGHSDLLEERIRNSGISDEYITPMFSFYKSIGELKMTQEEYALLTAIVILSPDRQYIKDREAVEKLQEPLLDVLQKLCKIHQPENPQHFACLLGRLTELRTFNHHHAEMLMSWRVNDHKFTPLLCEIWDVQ
- test method notes: Cell-based assay of FXR activation (FXR-UAS-bla HEK 293T beta-lactamase reporter)
assay readout: pEC50
Remember, pEC50 is on a log scale: it is -log10 of the molar concentration.

Some entries whose results are on file:
{"smiles code": "O=C(O)c1cc(F)c2nc(N3C[C@@H]4C[C@H]3C[C@H]4OCc3c(-c4c(Cl)cccc4Cl)cnn3C3CC3)sc2c1", "pEC50": 6.40}
{"smiles code": "O=C(O)c1cc(OC2CC2)c2nc(N3C[C@@H]4C[C@H]3C[C@H]4OCc3c(-c4c(Cl)cccc4Cl)cnn3C3CC3)sc2c1", "pEC50": 7.70}
{"smiles code": "O=C(O)c1cc(O[C@H]2CCOC2)c2nc(N3C[C@@H]4C[C@H]3C[C@H]4OCc3c(C4CC4)nnn3-c3c(Cl)cccc3Cl)sc2c1", "pEC50": 7.60}
{"smiles code": "O=C(NS(=O)(=O)C1CCOCC1)c1ccc(N2C[C@@H]3C[C@H]2C[C@H]3OCc2c(C3CC3)cnn2-c2c(Cl)cccc2Cl)cc1", "pEC50": 9.10}

Query "O=C(O)c1ccc(N2C[C@@H]3C[C@H]2C[C@H]3OCc2c(-c3c(Cl)cccc3Cl)nnn2C2CC2)cc1" yields pEC50 of 7.40

====

- subject of test: ligand binding domain of human FXR (Homo sapiens, UniProt Q96RI1)
- Construct: purchased Thermofisher (LanthaScreen) PV4833
- test method notes: biochemical
- test settings: −log EC50, concentration required to produce 50% activation; FRET 520 nm/495 nm, 1 hour at room temperature; read-out: Ligand Binding pEC50 (converted)
- Procedure: The affinity of FXR ligands for the ligand binding domain of FXR was determined using a commercially available human FXR ligand binding assay (LanthaScreen, Thermofisher Cat #PV4833). […] Test compounds are dissolved in DMSO and a 3-fold serial dilution series is generated, then further diluted into assay buffer. […] The reaction is incubated at room temperature for 1 hour, then the FRET signal is measured as the ratio of the 520 nm/495 nm emission following excitation at 340 nm. […]
Attribute: EC50
Provide only the numeric value, understood in nM.

Some entries whose results are on file:
{"compound": "O=C(O)c1cc(F)c2nc(N3C[C@@H]4C[C@H]3C[C@H]4OCc3c(-c4c(Cl)cccc4Cl)cnn3C3CC3)sc2c1", "recorded number": 251}
{"compound": "O=C(O)c1cc(C2CCOCC2)c2nc(N3C[C@@H]4C[C@H]3C[C@H]4OCc3c(-c4c(Cl)cccc4Cl)cnn3C3CC3)sc2c1", "recorded number": 100}
{"compound": "Cc1cccc(C)c1-n1ncc(C2CC2)c1CO[C@@H]1C[C@@H]2C[C@H]1CN2c1ccc(C(=O)O)c(F)c1", "recorded number": 25.1}

Query "O=C(O)c1ccc(N2C[C@@H]3C[C@H]2C[C@H]3OCc2c(-c3c(Cl)cccc3Cl)cnn2C2CC2)cc1" yields EC50 of 316

Query "O=C(NS(=O)(=O)C1CC1)c1ccc(N2C[C@@H]3C[C@H]2C[C@H]3OCc2c(C3CC3)cnn2-c2c(Cl)cccc2Cl)cc1" yields EC50 of 3.98

Query "O=C(O)c1ccc(N2C[C@@H]3C[C@H]2C[C@H]3OCc2c(-c3c(Cl)cccc3Cl)nnn2C2CC2)cc1" yields EC50 of 63.1

Query "O=C(O)c1c(F)cc(N2C[C@@H]3C[C@H]2C[C@H]3OCc2c(C3CC3)cnn2-c2c(Cl)cccc2Cl)cc1F" yields EC50 of 39.8

====

- subject of test: human Farnesoid X receptor ligand-binding domain/Gal4 DNA binding domain chimera (Homo sapiens)
- Construct: host or cells: FXR-UAS-bla HEK 293T (CellSensor UAS-bla HEK 293T)
- test method notes: Cell-based assay of FXR activation (FXR-UAS-bla HEK 293T beta-lactamase reporter)
- test settings: HEK-293T, read-out: Cellular % Efficacy
assay readout: Emax (%)
Provide only the numeric value, understood in %.

{"molecule": "O=C(O)c1cc(OC2CC2)c2nc(N3C[C@@H]4C[C@H]3C[C@H]4OCc3c(-c4c(Cl)cccc4Cl)cnn3C3CC3)sc2c1 [Compound I-48]", "unit descriptor": "%", "Emax": 101}
{"molecule": "O=C(O)c1ccc(N2C[C@@H]3C[C@H]2C[C@H]3OCc2c(C3CC3)nnn2-c2c(Cl)cccc2Cl)cc1 [Compound I-52]", "unit descriptor": "%", "Emax": 106}

Query O=C(NS(=O)(=O)C1CCOCC1)c1ccc(N2C[C@@H]3C[C@H]2C[C@H]3OCc2c(C3CC3)nnn2-c2c(Cl)cccc2Cl)cc1 [Compound I-56] yields Emax of 104

====

- subject of test: human Farnesoid X receptor ligand-binding domain/Gal4 DNA binding domain chimera (Homo sapiens)
- test method notes: Cell-based assay of FXR activation (FXR-UAS-bla HEK 293T beta-lactamase reporter)
Attribute: pEC50
Remember, pEC50 is on a log scale: it is -log10 of the molar concentration.

{"compound": "O=C(O)c1ccc(N2C[C@@H]3C[C@H]2C[C@H]3OCc2c(C3CC3)nnn2-c2c(Cl)cccc2Cl)cc1 [Compound I-52]", "pEC50": 8.40}
{"compound": "O=C(O)c1ccc(N2C[C@@H]3C[C@H]2C[C@H]3OCc2c(C3CC3)nnn2-c2c(Cl)cccc2Cl)cc1F [Compound I-53]", "pEC50": 8.40}

Shifting focus to the compound that follows.
Query O=C(O)c1cc(C2CCCC2)c2nc(N3C[C@@H]4C[C@H]3C[C@H]4OCc3c(-c4c(Cl)cccc4Cl)nnn3C3CC3)sc2c1 [Compound I-69] yields pEC50 of 8.60

====

- subject of test: human Farnesoid X receptor ligand-binding domain/Gal4 DNA binding domain chimera (Homo sapiens)
- test method notes: Cell-based assay of FXR activation (FXR-UAS-bla HEK 293T beta-lactamase reporter)
pEC50: −log10 of the molar value.
Classification field: MET = pEC50 at or over 8; NOT MET = pEC50 under 8.

The examples below pair each entry with its known result.
{"compound": "O=C(O)c1cc(C2CCOCC2)c2nc(N3C[C@@H]4C[C@H]3C[C@H]4OCc3c(C4CC4)cnn3-c3c(Cl)cccc3Cl)sc2c1 [Compound I-32]", "assigned class": "MET"}
{"compound": "O=C(O)c1cc([C@H]2CCOC2)c2nc(N3C[C@@H]4C[C@H]3C[C@H]4OCc3c(-c4c(Cl)cccc4Cl)cnn3C3CC3)sc2c1 (single isomer, unassigned) [Compound I-51]", "assigned class": "NOT MET"}
{"compound": "O=C(O)c1ccc(N2C[C@@H]3C[C@H]2C[C@H]3OCc2c(C3CC3)cnn2-c2c(Cl)cccc2Cl)cc1 [Compound I-1]", "assigned class": "MET"}
{"compound": "CS(=O)(=O)CCNC(=O)c1ccc(N2C[C@@H]3C[C@H]2C[C@H]3OCc2c(-c3c(Cl)cccc3Cl)cnn2C2CC2)cc1F [Compound I-45]", "assigned class": "NOT MET"}
{"compound": "O=C(O)c1ccc(N2C[C@@H]3C[C@H]2C[C@H]3OCc2c(-c3c(Cl)cccc3Cl)cnn2C2CC2)cc1F [Compound I-42]", "assigned class": "NOT MET"}

# input for lookup
Exam item: hey, is pEC50 for this one >= 8? O=C(O)c1cc(OC2CC2)c2nc(N3C[C@@H]4C[C@H]3C[C@H]4OCc3c(C4CC4)cnn3-c3c(Cl)cccc3Cl)sc2c1 [Compound I-31]
Marked response: MET
